Source: patent US12215106B2

# Procedure details: Plasma pharmacokinetics and brain distribution after single IV, IP and oral administration
# Format: in vivo
# Experimental context: male, C57BL/6, mouse, in vivo; IV 2 mg/kg, 0.08 hr; read-out: Brain-to-plasma ratio
# Experimental: The objective of this study was to investigate the plasma pharmacokinetics and brain distribution of Compound (14 in male C57BL/6 mice following a single intravenous, intraperitoneal and oral administration. A group of sixty-three male mice were divided into three groups (Group 1: 2 mg/kg/IV; Group 2: 10 mg/kg/IP and Group 3: 10 mg/kg/PO) with each group comprising of twenty-one mice. […]
Counter-ions that a name gives are not always drawn.
Result type: Kp at 0.08 h
// return just the number, without any unit appended

Query string: Record request: Kp at 0.08 h value, item [2H]C1([2H])Oc2ccc(Nc3nc(-c4c(C)nc5ccccn45)cs3)cc2O1 [Compound 17, hydrochloride]
Result string: 0.18

Query string: Record request: Kp at 0.08 h value, item [2H]C([2H])([2H])Oc1ccc(Nc2nc(-c3c(C)nc4ccccn34)cs2)cc1 [Compound 15, hydrochloride]
Result string: 1.17
